Please provide measured OD 492 nm for the entries that follow.
Target: purified rabies virus glycoprotein (rabies virus ERA strain) (rabies virus strain ERA, UniProt P03524 20-524)
Test: phage ELISA on coated purified G protein (ERA), anti-M13-HRP
Numbers only, in OD 492 nm.

SC04-008 (scFv) scFv: AMAQVTLKESGPTLVKPTQTLTLTCTFSGFSLSTSGVGVGWIRQPPGKALEWLARIDWDDDKYYSTSLKTRLTISKDTSKNQVVLTMTNMDPVDTATYYCARMGFTGTYFDYWGQGTLVTVSSGTGGSGGTGSGTGGSTQAVLTQPSSVSVAPGETASVTCGGDNIGSKSVHWYQKKPGQAPVLVVFDDSDRPSGIPERFSGSTSGNTAALTISRVEAGDEADYYCQVWDSSNDHLYVFGPGTQLTVLSAAA :: 0.582

Now, please, on to the next binder.
Ask: Quick one: OD 492 nm for SC04-026 (scFv) scFv: AMAEVQLVESGAEVKKPGESLKISCKGSGYNFPYSWIAWVRQMPGKGLEWMGIIFPGDSDTRYSPPFQGQVTISADNSKSTAYLQWSSLKASDTAMYYCARTSNWNYLDRFDPWGQGTLVTVSSGTGGSGGTGSGTGGSTDVVMTQSPLSLPVTPGEPASISCRSSQSLLHSNGHDYLDWYVQKPGQSPQPLIYLGSDRASGVPDRFSGSGSGTHFTLNISRVEAEDVGVYYCMQSLQTPWTFGQGTKLEIKRAAA ?
Reply: 0.212
